Reported values of EC50, ligand stimulated β-galactosidase expression for individual entries
target: T1, human LGR7 (human, UniProt Q9HBX9 1-757)
T1 sequence (looked up): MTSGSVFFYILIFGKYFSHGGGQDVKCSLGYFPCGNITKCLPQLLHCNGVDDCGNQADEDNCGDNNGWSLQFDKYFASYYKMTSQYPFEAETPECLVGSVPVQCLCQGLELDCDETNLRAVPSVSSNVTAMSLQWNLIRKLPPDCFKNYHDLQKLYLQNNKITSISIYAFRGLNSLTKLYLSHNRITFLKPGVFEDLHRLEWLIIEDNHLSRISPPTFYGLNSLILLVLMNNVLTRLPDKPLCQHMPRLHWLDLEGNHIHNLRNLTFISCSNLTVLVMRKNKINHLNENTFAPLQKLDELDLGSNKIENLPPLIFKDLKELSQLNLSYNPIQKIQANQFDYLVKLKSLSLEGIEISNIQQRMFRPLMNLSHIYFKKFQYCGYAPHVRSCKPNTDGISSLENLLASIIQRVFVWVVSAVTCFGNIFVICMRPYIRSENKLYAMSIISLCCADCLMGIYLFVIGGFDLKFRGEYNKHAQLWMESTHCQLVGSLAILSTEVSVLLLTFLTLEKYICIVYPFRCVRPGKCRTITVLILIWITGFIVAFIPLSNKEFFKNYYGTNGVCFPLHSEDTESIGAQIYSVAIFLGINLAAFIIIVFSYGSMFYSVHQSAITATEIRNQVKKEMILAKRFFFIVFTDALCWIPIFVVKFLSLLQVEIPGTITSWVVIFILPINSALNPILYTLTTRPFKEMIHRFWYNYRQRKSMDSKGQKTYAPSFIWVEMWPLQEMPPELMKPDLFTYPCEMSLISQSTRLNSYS
assay text: cell-based or functional assay
Ends that are not written are not given here.
reported endpoint: EC50, ligand stimulated β-galactosidase expression

[[record]]
binder = "Relaxin-3/INSL3 (R3/I3) chimeric polypeptide (ligand, human, disulfide (positions not given here), domain: A-chain; Two chains joined by disulfide bonds; FLAG tag removed) chain 1: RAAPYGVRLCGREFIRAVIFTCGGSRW chain 2: NPARYCCLSGCTQQDLLTLC"
result = "2.5 nM"

[[record]]
binder = "Relaxin-3/Relaxin-2 (R3/R2) chimeric polypeptide (ligand, human, disulfide (positions not given here); also: two chains joined by disulfide bonds, pairing not given here, domain: A-chain; Two chains joined by disulfide bonds; FLAG tag removed) chain 1: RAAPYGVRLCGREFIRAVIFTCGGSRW chain 2: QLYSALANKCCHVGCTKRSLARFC"
result = "1.1 nM"

[[record]]
binder = "Relaxin-3/Relaxin-1 (R3/R1) chimeric polypeptide (ligand, human, disulfide (positions not given here), domain: A-chain; Two chains joined by disulfide bonds; Made in COS-7 cells with furin, FLAG tag removed with enterokinase) chain 1: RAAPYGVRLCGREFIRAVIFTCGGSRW chain 2: RPYVALFEKCCLIGCTKRSLAKYC"
result = "4.5 nM"


# credit: patent EP1789452B1
